# Lookup of reported CC50 at 48 h keyed by entry
Test: Cytotoxicity against MDCK cells after 48 hrs by MTT assay
Format: cell-based, Canis lupus familiaris
Details: dog

MOLECULE	CC50 at 48 h
Cc1ccc(-c2cc(C(F)(F)F)n3ncc(C(=O)Nc4sc5c(c4C(N)=O)CCCC5)c3n2)cc1	> 250 µM
NC(=O)c1c(NC(=O)c2cnn3c(C(F)F)cc(-c4ccccc4)nc23)sc2c1CCC2	> 250 µM
NC(=O)c1ncn([C@@H]2O[C@H](CO)[C@@H](O)[C@H]2O)n1	> 250 µM
COc1ccc(-c2cc(C(F)(F)F)n3ncc(C(=O)Nc4sc5c(c4C(N)=O)CCCC5)c3n2)cc1	51.3 µM
O=C(Nc1ccccc1Cl)c1ccc2c(c1)C1C3CCC(C3)C1C(c1ccccc1)N2 (centres undefined)	> 250 µM
CCC(C)NC(=O)c1ccccc1NC(=O)c1ccc(C)c(S(=O)(=O)Nc2cccc(NC(=O)c3ccccc3)c2)c1 (centres undefined)	> 250 µM
Cc1ccc(C)c(NS(=O)(=O)c2cc(C(=O)Nc3ccccc3C(=O)Nc3ccccc3)ccc2C)c1	70.3 µM
O=C(Nc1ccc2c(c1)CCC2)c1cnn2c(C(F)(F)F)cc(-c3cccs3)nc12	18.3 µM
NC(=O)c1c(NC(=O)c2cnn3c(C(F)F)cc(-c4ccccc4)nc23)sc2c1CCCC2	> 250 µM

Ref: ChEMBL document CHEMBL3286353
